Values from ChEMBL document CHEMBL3867467

Assay: in vivo
Settings: Wistar, rat, po, 10 umol/kg
ENDPOINT_NAME: AUC(0-inf) (µM·h)

In [3]: df
Out[3]:
                                smiles_code  assay_value
0  COc1ccc([C@@H](Oc2ccc3c(cnn3-c3ccc(F)cc3)c2)[C@H](C)NC(=O)C2CC2)cn1          5.9

P. C[C@]12C=CC(=O)C=C1CC[C@@H]1[C@@H]2[C@@H](O)C[C@@]2(C)[C@H]1CC[C@]2(O)C(=O)CO
Q. C[C@H](NC(=O)C(F)(F)F)[C@H](Oc1ccc2c(cnn2-c2ccc(F)cc2)c1)c1ccccc1
# input Between the two listed entries P and Q , which has its AUC(0-inf) at the higher number? Lab log: write the label of the selected item as the result.
# output Q
(Q: 7.1 µM·h, P: 0.35 µM·h)
